B1: CPEB3 Ribozyme (parent)
chain: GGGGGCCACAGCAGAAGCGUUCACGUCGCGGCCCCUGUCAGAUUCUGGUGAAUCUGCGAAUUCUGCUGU

Variants of: B1
Experiment: self-cleavage, relative activity (ratio to wild type); higher = more cleavage; co-transcriptional
Measurement label: self-cleavage

| Variant name | Readout value |
| --- | --- |
| G14U C35G | 0.309 |
| A15C C63G | 0.921 |
| U21G C34A | 0.218 |
| G41A C57A | 0.283 |
| G17A G30A | 0.164 |
| C7A U36G | 0.205 |
| G11C C34A | 0.615 |
| C34A U55G | 0.357 |
| C22G C39U | 0.236 |
| G2C C27A | 0.0594 |
| A16C G47C | 0.368 |
| U46A G50A | 0.974 |
| C12G U67G | 0.797 |
| C7U U26C | 1.01 |
| C54U G68U | 1.06 |
| G2A G3A | 0.0827 |
| C32U C35G | 0.349 |
| A15U G50U | 0.858 |
| C34A A40U | 0.468 |
| C32U C33A | 0.593 |
| A13U G14A | 0.328 |
| G50U C57G | 0.264 |
